TESTED ON: Serotonin 1A (5-HT1A) receptor (Rattus norvegicus, UniProt P19327)
Construct: The cortex tissue were homogenized in 30 volumes of ice-cold 50 mM Tris-HCl buffer; from tissue; host or cells: Sprague-Dawley rat brain cortex membranes
Sequence (P19327 whole entry): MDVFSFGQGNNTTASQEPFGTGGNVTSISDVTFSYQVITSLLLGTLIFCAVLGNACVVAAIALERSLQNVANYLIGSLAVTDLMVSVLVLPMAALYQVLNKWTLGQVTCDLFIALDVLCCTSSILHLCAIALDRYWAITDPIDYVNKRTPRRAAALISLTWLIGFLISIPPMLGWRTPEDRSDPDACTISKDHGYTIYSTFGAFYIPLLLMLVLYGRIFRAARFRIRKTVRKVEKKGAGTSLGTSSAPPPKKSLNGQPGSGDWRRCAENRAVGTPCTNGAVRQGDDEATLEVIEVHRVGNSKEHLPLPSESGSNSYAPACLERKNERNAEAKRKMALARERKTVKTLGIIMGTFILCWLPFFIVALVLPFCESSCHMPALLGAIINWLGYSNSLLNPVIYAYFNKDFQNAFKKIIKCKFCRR
ASSAY REMARKS: Serotonin 1A (5-HT1A) receptor inhibition assay, [3H]8-OH-DPAT binding to rat cortex membranes
Set-up: species or system Sprague-Dawley (SD) rats
APPLIED CONDITIONS: 10 nM test compound; 0.92 nM [3H]8-OH-DPAT; rat cortex homogenate; 60 min at 25° C.
Where a name gives a salt, the structure may show the parent alone.
# inhibition at 0.01 µM values compiled below
Expressed in %, but write only the number.

// known answers, use as guide
INSERT INTO results (compound, units_label, endpoint_result) VALUES
  ('Clc1ccccc1N1CCN(CCCCOc2ccc(Cn3nccn3)cc2)CC1 [Example 56]', '%', 24.3),
  ('COc1ccccc1N1CCN(CCCCOc2ccc(Cn3cnc4ccccc43)cc2)CC1 [Example 9]', '%', 52.2),
  ('CN(C)Cc1ccc(OCCCCN2CCN(c3ccccc3Cl)CC2)cc1 [Example 33]', '%', 53.7),
  ('COc1ccccc1N1CCN(CCCCOc2ccc(Cn3ncnn3)cc2)CC1 [Example 4]', '%', 75.9),
  ('COc1ccccc1N1CCN(CCCCOc2cccc(Cn3ccnc3)c2)CC1 [Example 5]', '%', 50.7),
  ('COc1ccccc1N1CCN(CCCCOc2ccc(CN(C)C)cc2)CC1 [Example 19, dihydrochloride]', '%', 59.6);

Asked: Suppose we examine the compound COc1ccccc1N1CCN(CCCCOc2ccc(Cn3nnnc3-c3ccccc3)cc2)CC1 [Example 16] ; what inhibition at 0.01 µM value has been reported?
Given back: 62.5

Asked: Thanks! And COc1ccccc1N1CCN(CCCCOc2ccc(Cn3nccn3)cc2)CC1 [Example 11] ?
Given back: 61.8

Asked: Another: COc1ccccc1N1CCN(CCCCOc2ccc(CNc3ccccc3)cc2)CC1 [Example 21]
Given back: 38.2
